All figures here come from patent US11192900B2.

target-under-test: BRD2-2 (Homo sapiens (Human))
Sequence (P25440 344-453): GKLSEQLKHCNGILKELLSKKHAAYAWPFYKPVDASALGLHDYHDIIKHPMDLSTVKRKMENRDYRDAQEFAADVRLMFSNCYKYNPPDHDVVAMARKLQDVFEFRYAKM
experiment: Bromodomain and Extraterminal Domain (BET) Binding Assay
Procedure: The bromodomain binding assays were performed by Reaction Biology Corp., Malvern, Pa., USA (www.reactionbiology.com). […] The microplate was read using a Perkin Elmer EnSpire Alpha plate reader (λEx/λEm=680/520-620 nm). Percent inhibition was calculated relative to positive and negative controls on a per plate basis. For titration experiments, IC50 values were determined by fitting the percent inhibition versus compound concentration.
measured-quantity: IC50 (nM)
Numbers only; they are read as nM.

// query Please tell me: IC50 of C=CS(=O)(=O)Nc1ccc(Oc2ccc(F)cc2F)c(-c2cc(NC)c(=O)n(C)c2)c1 , system BRD2-2 (Homo sapiens (Human))?
// result 12

---

Each entry below lists one item and its recorded pIC50 value.
target-under-test: BRD4-2 (Homo sapiens (Human), UniProt O60885)
experiment: Bromodomain and Extraterminal Domain (BET) Binding Assay
assay-context: Table 3; read-out: BRD4-2 IC50
Protocol: The bromodomain binding assays were performed by Reaction Biology Corp., Malvern, Pa., USA (www.reactionbiology.com). […] The microplate was read using a Perkin Elmer EnSpire Alpha plate reader (λEx/λEm=680/520-620 nm). Percent inhibition was calculated relative to positive and negative controls on a per plate basis. For titration experiments, IC50 values were determined by fitting the percent inhibition versus compound concentration.
Units for pIC50: none; it is -log10 of a concentration expressed in mol/L.

Take a look at these entries with their results.
1. C=CS(=O)(=O)Nc1ccc(Oc2ccc(F)cc2F)c(-c2cn(C)c(=O)cc2OC)c1 = 8.52
2. CC(=O)Nc1ccc(Oc2c(C)cc(F)cc2C)c(-n2cc(C)c(=O)c3ccccc32)c1 = 6.53

Please look at the following molecule next.
// query Please give the measured pIC50 for this molecule: C=CC(=O)Nc1ccc(Oc2ccc(C)cc2)c(-c2cn(C)c(=O)c3ccccc23)c1
// result 6.58

---

target-under-test: BRD4-2 (Homo sapiens (Human))
experiment: Bromodomain and Extraterminal Domain (BET) Binding Assay
assay-context: Table 3; read-out: BRD4-2 IC50
// returns label 0 unless IC50 is strictly below 20 nM, in which case label 1

# count of solved cases: 5
1. C=CS(=O)(=O)Nc1ccc(Oc2ccc(C)cc2)c(-c2cc(NC)c(=O)n(C)c2)c1 = label 0
2. C=CC(=O)Nc1ccc(Oc2c(C)cccc2C)c(-c2cn(C)c(=O)cc2OC(C)C)c1 = label 1
3. C=CC(=O)Nc1ccc(Nc2c(F)cccc2F)c(-c2cn(C)c(=O)c3ccccc23)c1 = label 0
4. C=CC(=O)Nc1ccc(Oc2ccc(Cl)c(F)c2)c(-c2cn(C)c(=O)c3ccccc23)c1 = label 0
5. C=CC(=O)Nc1ccc(Oc2ccc(F)cc2F)c(-c2cc(N(C)C)c(=O)n(C)c2)c1 = label 1

// query Is IC50 of C=CC(=O)Nc1ccc(Oc2ccc(F)cc2F)c(-c2cc(NC)c(=O)n(C)c2)c1 strictly below 20 nM?
// result label 0

// query Entry to check: C=CC(=O)Nc1ccc(Oc2c(C)cccc2C)c(-c2cn(C)c(=O)c3sc(C(=O)NCC)cc23)c1
// result label 1

// query Next entry: CCS(=O)(=O)Nc1ccc(Oc2c(C)cc(F)cc2C)c(-n2cc(C)c(=O)c3ccccc32)c1
// result label 1

---

target-under-test: BRD4-1 (Homo sapiens (Human))
experiment: Bromodomain and Extraterminal Domain (BET) Binding Assay
assay-context: Table 3; read-out: BRD4-1 IC50
measured-quantity: pIC50
// scale note: pIC50 = -log10(conc_M); give the bare number

Past entries and their recorded results:
1) C=CC(=O)Nc1ccc(Oc2ccc(F)cc2F)c(-c2cc(N(C)C)c(=O)n(C)c2)c1 = 7.52
2) C=CC(=O)Nc1ccc(Oc2ccc(F)cc2F)c(-c2cn(C)c(=O)cc2OC)c1 = 6.74
3) C=CC(=O)Nc1ccc(Oc2ccc(F)cc2F)c(-c2cc(NC)c(=O)n(C)c2)c1 = 6.73

// query What value of pIC50 has been reported for the following compound? C=CC(=O)Nc1ccc(Nc2c(C)cccc2C)c(-c2cn(C)c(=O)c3cc(C(=O)NCC)sc23)c1
// result 5.30

---

target-under-test: BRD4-2 (Homo sapiens (Human), UniProt O60885)
experiment: Bromodomain and Extraterminal Domain (BET) Binding Assay
assay-context: Table 3; read-out: BRD4-2 IC50
Documented IC50 across a set of molecules
Please state the figure in nM; there is no need to write the unit.

1. C#CC(=O)Nc1ccc(Oc2ccc(F)cc2F)c(-c2cn(C)c(=O)c3ccccc23)c1 [Compound 74] = 239
2. C=CC(=O)Nc1ccc(Oc2ccc(Cl)cc2)c(-c2cn(C)c(=O)c3ccccc23)c1 [Compound 31] = 413
3. C=CS(=O)(=O)Nc1ccc(OC)c(-c2cc(NC)c(=O)n(C)c2)c1 [Compound 20] = 3860

Please examine the following record next.
// query GET /values?readout=IC50&item= C=CC(=O)Nc1ccc(Oc2ccc(F)cc2F)c(-c2cn(C)c(=O)cc2OC)c1 [Compound 407]
// result 11

---

Test system: MV-4-11 human acute myeloid leukemia cell line
experiment: Second cell viability assay in MV-4-11 (Cell Titer-Glo)
Assay type: cell-based
assay-context: Homo sapiens; MV4-11, Cell Titer-Glo, 72 hrs; read-out: Cell Viability IC50 in MV4-11 cells
measured-quantity: log10 IC50 (log10 of the value in nM)
Note: values are log10 of IC50 expressed in nM.

1. C=CC(=O)Nc1ccc(Oc2c(C)cccc2C)c(-c2cn(C)c(=O)c3cc(C(=O)NCC)sc23)c1 [Compound 412] = 1.40
2. C=CC(=O)Nc1ccc(Oc2ccc(F)cc2F)c(-n2cc(C)c(=O)c3ccccc32)c1 [Compound 613] = 3.78
3. C=CS(=O)(=O)Nc1ccc(Oc2ccc(F)cc2F)c(-c2cc(N)c(=O)n(C)c2)c1 [Compound 17] = 1.92
4. C=CC(=O)Nc1ccc(Oc2ccc(F)cc2F)c(-c2cn(C)c(=O)cc2OC)c1 [Compound 407] = 1.71

// query Can you look up the measured log10 IC50 of C=CC(=O)Nc1ccc(Oc2c(C)cccc2C)c(-c2cn(C)c(=O)cc2OC(C)C)c1 [Compound 589] for me?
// result 2.26

---

Test system: IEC-6 rat intestinal epithelial cell line
experiment: IEC-6 cell viability, Protocol A (toxicity to non-cancerous cells)
Assay type: cell-based
assay-context: IEC-6, 3000 cells per well, 96 hrs
measured-quantity: pIC50
Note on units: pIC50 is unitless, being -log10 of a concentration expressed in mol/L.

// query GET /values?readout=pIC50&item= C=CS(=O)(=O)Nc1ccc(Oc2ccc(F)cc2F)c(-c2cc(NC)c(=O)n(C)c2)c1
// result 6.47

---

System: MV-4-11 human acute myeloid leukemia cell line
experiment: Second cell viability assay in MV-4-11 (Cell Titer-Glo)
Assay type: cell-based
assay-context: Homo sapiens; MV4-11, Cell Titer-Glo, 72 hrs; read-out: Cell Viability IC50 in MV4-11 cells
measured-quantity: IC50 (nM)
Report only the number, with the unit nM understood.

// query So what's the measured IC50 for this one? C=CC(=O)Nc1ccc(Nc2c(C)cccc2C)c(-c2cn(C)c(=O)c3cc(C(=O)NCC)sc23)c1 [Compound 585]
// result 221

---

target-under-test: BRD4-1 (Homo sapiens (Human), UniProt O60885)
experiment: Bromodomain and Extraterminal Domain (BET) Binding Assay
assay-context: Table 3; read-out: BRD4-1 IC50
measured-quantity: log10 of IC50 (log10 of the value in nM)
Transform log10 | Measure IC50 | Unit nM

1. C=CC(=O)Nc1ccc(Oc2c(C)cccc2C)c(-c2cn(C)c(=O)c3ccccc23)c1 = 3.99
2. CCS(=O)(=O)Nc1ccc(Oc2c(C)cc(F)cc2C)c(-n2cc(C)c(=O)c3ccccc32)c1 = 3.14
3. CCS(=O)(=O)Nc1ccc(Oc2ccc(F)cc2F)c(-n2cc(C)c(=O)c3ccccc32)c1 = 1.04
4. CCS(=O)(=O)Nc1ccc(Oc2ccc(F)cc2F)c(-n2ccc(=O)c3ccccc32)c1 = 3.08
5. C=CS(=O)(=O)Nc1ccc(Oc2ccc(F)cc2F)c(-c2cn(C)c(=O)cc2OC)c1 = 1.34
6. C=CC(=O)Nc1ccc(Oc2c(C)cccc2C)c(-c2cc(NC)c(=O)n(C)c2)c1 = 2.54
7. C=CC(=O)Nc1ccc(Nc2ccc(F)cc2F)c(-c2cn(C)c(=O)c3ccccc23)c1 = 3.23
8. C=CS(=O)(=O)Nc1ccc(Oc2ccc(F)cc2F)c(-c2cc(NC)c(=O)n(C)c2)c1 = 1.38

Here's the next entry for you.
// query Suppose we examine the compound C=CC(=O)Nc1ccc(Oc2c(C)cccc2C)c(-c2cn(C)c(=O)cc2OC)c1 ; what log10 of IC50 value has been reported?
// result 2.35
